assay: gradient 5% acetonitrile 3 min, to 50% in 2 min, to 85% in 15 min, held 3 min, 100 µL/min; details: column: Zorbax Extend-C18 2.1 x 50 mm; eluents: water / acetonitrile, 0.1% formic acid
RP-LC retention time by entry:
Include the unit right after the number.

Some solved entries appear below for comparison.
compound: Cc1ccc(S(=O)(=O)N2CCC(CC(=O)NC(C)Cc3ccco3)CC2)cc1 (stereo not drawn)
RP-LC retention time: 907 s
--
compound: Nc1nc(-c2ccccc2)nn1C(=O)C1CC1
RP-LC retention time: 800 s

## Task Quick one: RP-LC retention time for `O=S(=O)(Nc1cccnc1)c1ccc(Cl)c(-c2nnc(-c3ccccc3)o2)c1` ?
## Result 807 s

----------
assay: gradient 5% acetonitrile 3 min, to 50% in 2 min, to 85% in 15 min, held 3 min, 100 µL/min; details: column: Zorbax Extend-C18 2.1 x 50 mm; eluents: water / acetonitrile, 0.1% formic acid
RP-LC retention time listing for selected molecules.
Report the figure in s without appending any unit label.

Some molecules with recorded RP-LC retention time:
molecule: O=C(CCCc1c[nH]c2ccccc12)N1CCN2CCS(=O)(=O)N(C3CC3)C(=O)C2C1 (configuration not stated)
RP-LC retention time (s): 824

molecule: COc1ccccc1NC(=O)Nc1cccc(-c2ccc(N3CCOCC3)nn2)c1
RP-LC retention time (s): 702

molecule: N#Cc1ccc(-c2nc(-c3ccc4c(c3)nnn4CCC(=O)N3CCOCC3)no2)cc1
RP-LC retention time (s): 786

## Task What does the data say about its RP-LC retention time? Entry: COc1ccc(C2(C(=O)N3CCC4(CC3)CN(C(C)C)C4c3ccccc3)CC2)cc1 (configuration not stated)
## Result 684

## Task Data request, read-out RP-LC retention time, for `Cc1ccc(S(=O)(=O)Nc2cc(-c3cn4ccc(C)cc4n3)ccc2C)cc1`
## Result 696

## Task // returns reported RP-LC retention time for input CN1CCCc2cc(C(CNC(=O)C(=O)NCCC3=CCCCC3)N3CCCC3)ccc21 (configuration not stated)
## Result 803

## Task I have this molecule here, `COc1ccc(CCC(=O)NCC2CCN(C(=O)NC(C)(C)C)CC2)cc1` , and I need its recorded RP-LC retention time.
## Result 687

----------
experiment: gradient 5% acetonitrile 3 min, to 50% in 2 min, to 85% in 15 min, held 3 min, 100 µL/min; conditions: column: Zorbax Extend-C18 2.1 x 50 mm; eluents: water / acetonitrile, 0.1% formic acid
endpoint: RP-LC retention time (s)
Unit s implied. Number only.

Solved entries:
smiles string: O=C(Nc1c(F)cccc1F)N1CC(c2nc(Cc3ccccc3)no2)C1
value units: s
RP-LC retention time: 753
//
smiles string: O=C(Nc1ccc(Cn2cncn2)cc1)c1ccc(Br)o1
value units: s
RP-LC retention time: 708

## Task Bench note: what RP-LC retention time did `Cc1ccc(CNC(=O)COc2cc(C)nc(N3CCN(c4ccccc4)CC3)n2)cc1` show?
## Result 922

## Task # input molecule: `CCn1cc(S(=O)(=O)Nc2ccc3nc(S(=O)(=O)CC)sc3c2)cn1` ; wanted: its RP-LC retention time
## Result 693

----------
test: gradient 5% acetonitrile 3 min, to 50% in 2 min, to 85% in 15 min, held 3 min, 100 µL/min; details: column: Zorbax Extend-C18 2.1 x 50 mm; eluents: water / acetonitrile, 0.1% formic acid
RP-LC retention time of 700 s or higher: met. Under 700 s: not met.

molecule: CCN1C(=O)c2cccnc2Sc2cc(NC(=O)c3ccoc3)ccc21
category: met

molecule: Cn1cc(-c2nc(C(=O)Nc3cccc(C#N)c3)cs2)c2cccnc21
category: met

molecule: Cc1ccc(-c2nc(Cn3c(C)nc4onc(C)c4c3=O)c(C)o2)cc1
category: met

molecule: CN(C)C[C@@H]1CN(S(C)(=O)=O)C[C@H]1NC(=O)CC1=CCCCC1
category: not met

molecule: COc1ccc2c(c1)c(CN1CCOCCNC(=O)CC1)cn2C(C)C
category: not met

molecule: COCCN1C(=O)Cc2ccccc2C1C(=O)NCc1ccco1 (configuration not stated)
category: not met

## Task Item `Cc1ccc(OCc2nc(-c3ccc(N4CCSCC4)nc3)no2)cc1` with RP-LC retention time of 700 s or above?
## Result met

## Task # bool: RP-LC retention time of `O=C(c1cc(C2CC2)[nH]n1)N1CCC(Cc2ccccc2)CC1` >= 700 s
## Result met

----------
assay: gradient 5% acetonitrile 3 min, to 50% in 2 min, to 85% in 15 min, held 3 min, 100 µL/min; settings: column: Zorbax Extend-C18 2.1 x 50 mm; eluents: water / acetonitrile, 0.1% formic acid
endpoint: RP-LC retention time (s)
Hi! Could you send only the number? It should be in s, unit omitted.

Use these answered entries as a reference point.
molecule: Cc1ccc(CNC(=O)C2CCCN(c3ncnc4c3oc3ccccc34)C2)cc1 (stereo not drawn)
endpoint: RP-LC retention time
quantitative readout: 807

molecule: CCOC(=O)c1cn(CC(=O)Nc2ccc(Br)cc2)c2nc(C)ccc2c1=O
endpoint: RP-LC retention time
quantitative readout: 821

## Task Name the recorded RP-LC retention time for `Cc1cc2nn(CC(=O)Nc3ccccc3C)c(=O)n2c(-c2ccc(F)cc2)n1` .
## Result 796

----------
assay: gradient 5% acetonitrile 3 min, to 50% in 2 min, to 85% in 15 min, held 3 min, 100 µL/min; details: column: Zorbax Extend-C18 2.1 x 50 mm; eluents: water / acetonitrile, 0.1% formic acid
endpoint: RP-LC retention time

Below, each entry is followed by its recorded RP-LC retention time result.
smiles string: CCc1ccc(CNC(=O)CCC(=O)N2CCCn3nc(C)cc32)cc1
result: 666 s
--
smiles string: Cc1nnc(-c2nnc(N3CCC(C)CC3)c3ccccc23)o1
result: 824 s

Let's switch to this molecule now.
## Task // lookup RP-LC retention time for `CC1=C(c2ccc(C)cc2)S(=O)(=O)N=C1N1CCCN(C(=O)NCc2ccco2)CC1`
## Result 803 s

----------
test: gradient 5% acetonitrile 3 min, to 50% in 2 min, to 85% in 15 min, held 3 min, 100 µL/min; details: column: Zorbax Extend-C18 2.1 x 50 mm; eluents: water / acetonitrile, 0.1% formic acid
endpoint: RP-LC retention time (s)
Enter your answer as a number in s; do not include the unit.

compound: COc1cccc(NC(=O)N2CCN(Cc3nc4ccc(Cl)cc4o3)CC2)c1
value units: s
quantitative readout: 726

compound: CCOc1cccc(-c2noc(-c3nn(-c4cccc(F)c4)ccc3=O)n2)c1
value units: s
quantitative readout: 978

compound: O=C(c1ccc2ccccc2n1)N1CCC(OCC2CC2)C1 (stereo not given)
value units: s
quantitative readout: 832

compound: CCc1ccc(S(=O)(=O)N2CCc3c(c(-c4nc(C5CC5)no4)nn3C)C2)cc1
value units: s
quantitative readout: 1020

compound: CCC(C)CNCC(=O)N1CCc2sccc2C1COc1cccc(C)c1 (stereo not given)
value units: s
quantitative readout: 916

compound: CC(C)CC(=O)Nc1ccc(OCc2cc(C(=O)NC3CCCC3)no2)cc1
value units: s
quantitative readout: 890

## Task // returns reported RP-LC retention time for input `CC(C)c1ccc(NC(=O)Cn2cccc2-c2nnc(C3CC3)o2)cc1`
## Result 961

----------
assay: gradient 5% acetonitrile 3 min, to 50% in 2 min, to 85% in 15 min, held 3 min, 100 µL/min; conditions: column: Zorbax Extend-C18 2.1 x 50 mm; eluents: water / acetonitrile, 0.1% formic acid
endpoint: RP-LC retention time (s)
Express your answer in s, writing the number without its unit.

Some entries whose results are on file:
compound: COc1cccc(-c2noc(CN3C(=O)COc4cc(Cl)ccc43)n2)c1
endpoint: RP-LC retention time
value units: s
quantitative readout: 1090

compound: CCOc1ccccc1NC(=O)Cn1cnc2nc(N3CCCC(C(=O)NC)C3)sc2c1=O (configuration not stated)
endpoint: RP-LC retention time
value units: s
quantitative readout: 667

## Task Please look up its RP-LC retention time: `Cc1ccc(S(=O)(=O)N2CCC(c3cc(N)on3)CC2)cc1`
## Result 789

## Task RP-LC retention time for CC(=O)NCc1csc(C2CCCN(C(=O)c3cc(F)cc(F)c3)C2)n1 (configuration not stated) ?
## Result 684

## Task GET /values?readout=RP-LC retention time&item= `CC(C)n1c(N2CCN(C(=O)COc3ccc(Cl)cc3)CC2)cc(=O)n(C(C)C)c1=O`
## Result 928

## Task I am curious: what RP-LC retention time value has been reported for `O=C(COc1ncccn1)Nc1ccc(F)c(F)c1` ?
## Result 665

----------
experiment: gradient 5% acetonitrile 3 min, to 50% in 2 min, to 85% in 15 min, held 3 min, 100 µL/min; conditions: column: Zorbax Extend-C18 2.1 x 50 mm; eluents: water / acetonitrile, 0.1% formic acid
endpoint: RP-LC retention time (s)
Field format: number, assumed s, no unit text.

The following compounds have reported results that may help.
compound: CCOCCCNC(=O)C1CCN(c2cc(Oc3cccc(C)c3C)ncn2)CC1
RP-LC retention time (s): 819
//
compound: Cc1cccc(N2CCN(C(=O)C3CC(=O)N(c4cccc(NC(=O)C(C)C)c4)C3)CC2)c1 (stereo not drawn)
RP-LC retention time (s): 803

The record that follows has no RP-LC retention time shown yet.
## Task Query (compound): Cc1ccc(NC(=O)C2CCN(S(=O)(=O)c3ccc4c(c3)NC(=O)C(C)O4)CC2)cc1 (stereo not drawn) ; field requested: RP-LC retention time
## Result 817
